Experiment: HILIC, Waters ACQUITY UPLC BEH HILIC, 150 × 2.1 mm, 1.7 µm, 40 °C, 0.6 mL/min, estimated dead time 0.55 min; A: water + 0.1% formic acid + 20 mM ammonium formate, pH 3.5; B: acetonitrile + 0.1% formic acid, pH 3; gradient (min/%B) 0/95 0.1/95 4.6/80 5.5/50 7.0/50 7.1/95 7.2/95 7.3/95 7.4/95 7.5/95 7.6/95 7.7/95 7.8/95 12.50/95 12.65/95
Settings: stereoisomer not certain
MEASURED ATTRIBUTE: LC retention time (min)

get_value(item= CC(=O)NCCCNCCCCNCCCNC(C)=O [N1,N12-Diacetylspermine] , readout=LC retention time) returns 6.1

A: CC(CCC(=O)NCCS(=O)(=O)O)C1CCC2C3CCC4CC(O)CCC4(C)C3CC(O)C12C (stereo not given) [Taurodeoxycholic Acid]
B: CCCCCCCCCCCCCCCCCC(=O)OC(CC(=O)[O-])C[N+](C)(C)C (stereo not given) [Stearoylcarnitine CAR(18:0)]
## Input Returns: the argument ( A or B ) having the larger LC retention time. Bench note: the answer is the label of the chosen record.
## Output B
(B: 3.74 min, A: 1.81 min)

I: Cn1cnc2nc(N)[nH]c(=O)c21 [7-Methylguanine]
II: NC(Cc1cnc[nH]1)C(=O)O (stereo not given) [Histidine]
## Input Which has the higher LC retention time, I or II ? Please indicate the selected item by its label.
## Output II
(II: 6.15 min, I: 2.19 min)

###

Assay: HILIC, Waters ACQUITY UPLC BEH HILIC, 150 × 2.1 mm, 1.7 µm, 40 °C, 0.6 mL/min, estimated dead time 0.55 min; A: water + 0.1% formic acid + 20 mM ammonium formate, pH 3.5; B: acetonitrile + 0.1% formic acid, pH 3; gradient (min/%B) 0/95 0.1/95 4.6/80 5.5/50 7.0/50 7.1/95 7.2/95 7.3/95 7.4/95 7.5/95 7.6/95 7.7/95 7.8/95 12.50/95 12.65/95
Conditions: stereoisomer not certain
MEASURED ATTRIBUTE: LC retention time (min)

Look over these answered cases.
Entry CC(CCC(=O)NCCS(=O)(=O)O)C1CCC2C3C(O)CC4CC(O)CCC4(C)C3CCC12C (stereo not given) [Tauroursodeoxycholic acid] , LC retention time reported as 1.75

Kindly note the recorded LC retention time for Cn1cc(C(N)=O)ccc1=O [N1-methyl-2-pyridone-5-carboxamide] , which is 1.24

# compound C[N+](C)(C)CC(O)(CC(=O)[O-])C(=O)Cc1ccccc1 (stereo not given) [Phenylacetyl carnitine] ; its LC retention time = 4.47

P: C[N+](C)(C)CCOP(=O)([O-])OCC(O)CO (stereo not given) [a-Glycerophosphocholine]
Q: NC(Cc1ccc(OS(=O)(=O)O)cc1)C(=O)O (stereo not given) [O-Sulfotyrosine]
## Input Select one: P or Q . Criterion: greater recorded LC retention time. Indicate your choice by writing its label.
## Output P

a: O=c1[nH]cnc2nc[nH]c12 [Hypoxanthine]
b: CCCCCCCCCC(=O)OC(CC(=O)[O-])C[N+](C)(C)C (stereo not given) [Decanoylcarnitine CAR(10:0)]
## Input Compare a and b and name the one whose reported LC retention time is smaller. Refer to your chosen entry by its label in the reply.
## Output a
(a: 1.59 min, b: 3.92 min)
